Ref: ChEMBL document CHEMBL4038291

measurement protocol: Cytotoxicity against human Hep2 cells
Format: cell-based
measurement parameters: HEp-2 cells
measure: CC50

Query O=C(Nc1ccccc1)c1cc2c(s1)-c1ccccc1N(C(=O)c1ccc(NC(=O)c3cccnc3N3CC4(CCOCC4)C3)cc1)CC2 yields CC50 of > 14.9 µM

Query Cc1cnc(N2CC3(CCOCC3)C2)c(C(=O)Nc2ccc(C(=O)N3CCc4cc(-c5cc6ccccn6n5)sc4-c4ccccc43)cc2)c1 yields CC50 of > 14.6 µM

Query O=C(Nc1ccc(C(=O)N2CCc3cc(-c4nc5ccccc5[nH]4)sc3-c3ccccc32)cc1)c1ccc(C(F)(F)F)nc1N1CC2(CCOCC2)C1 yields CC50 of > 13.6 µM

Query Cc1cnc(N2CC3(CCOCC3)C2)c(C(=O)Nc2ccc(C(=O)N3CCc4cc(-c5nc6cccc(F)c6[nH]5)sc4-c4ccccc43)cc2)c1 yields CC50 of > 14.3 µM
